# koff values compiled below
# systemUnderTest: T1, Rhesus macaque CD4-HIS (Acro Biosystems, Cat. CD4-C52H7) (rhesus macaque, UniProt P16003 26-390)
# T1 construct: Bought reagent; also called Rhesus CD4; rhesus CD4-HIS; not shown: His tag
# T1 sequence (P16003 26-390 limits assumed): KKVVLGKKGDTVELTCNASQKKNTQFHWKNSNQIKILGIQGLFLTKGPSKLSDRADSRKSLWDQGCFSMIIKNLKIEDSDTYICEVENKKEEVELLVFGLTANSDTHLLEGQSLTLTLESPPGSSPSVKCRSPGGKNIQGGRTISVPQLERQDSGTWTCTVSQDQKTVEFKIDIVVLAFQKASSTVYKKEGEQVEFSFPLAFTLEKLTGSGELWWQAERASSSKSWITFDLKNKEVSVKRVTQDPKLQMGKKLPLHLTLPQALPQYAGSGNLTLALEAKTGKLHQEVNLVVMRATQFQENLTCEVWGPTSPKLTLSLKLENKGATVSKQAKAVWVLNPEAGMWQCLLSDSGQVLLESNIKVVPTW
# assay: BLI (Octet Red384); Ab on anti-mouse Fc (AMC) sensor; rhesus CD4-HIS 100/50/25 nM; global 1:1 fit;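 note: antibodies loaded at 10 µg/mL, an unrelated mouse-derived antibody served as internal reference, curves fit over association and dissociation phases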
Please reply with the bare figure in s⁻¹ and do not write the unit itself.

Consider the following illustrative entries.
INSERT INTO measurements (binder, unitofmeasurement, reading) VALUES
  ('75110_06C16A (antibody, V domains shown, Tested as antibody purified from AlivaMab Mouse hybridoma supernatant (human variable domains, kappa; mouse Fc, captured on anti-mouse IgG Fc sensors); also called ADS75110 purified AMM Ab) VH: QVQLQESGPGLVTPSETLSLSCTVSGGSISDYYWSWIRQPGGKGLEWIGRIYSSGSTNYNPSLKSRVTMSVDTSKNQFSLKLSSVTAADTAVYFCARDREDYYYYGMDVWGQGTTVTVSS VL: DIQMTQSPSSLSASVGDRVTITCQASHDISNYLNWYQQKPGKAPKLLIYAASNLETGVPSRFSGSGSGTDFSFTISSLQPEDIATYYCQQYDHLPLTFGGGTKVEIK', 's⁻¹', 0.002),
  ('75110_13P21A (antibody, V domains shown, Tested as antibody purified from AlivaMab Mouse hybridoma supernatant (human variable domains, kappa; mouse Fc, captured on anti-mouse IgG Fc sensors); also called ADS75110 purified AMM Ab) VH: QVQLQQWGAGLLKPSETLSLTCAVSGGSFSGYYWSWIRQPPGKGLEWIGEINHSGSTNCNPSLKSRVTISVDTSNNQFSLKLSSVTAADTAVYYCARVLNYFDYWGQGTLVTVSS VL: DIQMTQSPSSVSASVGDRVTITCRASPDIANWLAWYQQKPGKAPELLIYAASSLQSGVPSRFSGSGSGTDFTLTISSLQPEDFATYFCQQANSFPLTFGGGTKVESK', 's⁻¹', 0.013);

Quick note, koff for 75110_13C13A (antibody, V domains shown, Tested as antibody purified from AlivaMab Mouse hybridoma supernatant (human variable domains, kappa; mouse Fc, captured on anti-mouse IgG Fc sensors); also called ADS75110 purified AMM Ab) VH: QVQLQQWGAGLLKPSETLSLTCAVSGGSFSGYYWSWIRQPPGKGLEWIGEINHSGSTNCNPSLKSRVTISVDTSKNQFSLKLSSVTAADTAMYYCARVLNFFDYWGQGTLVTVSS VL: DIQMTQTPSSVSASVGDRVTITCRASPGISNWLAWYQQKPGKAPELLIYAASSLQSGVPSRFSGSGSGTDFTLTISSLQPEDFATYFCQQANSFPLTFGGGTKVESK landed at 0.0046
